Data origin: patent US8691775B2

Tested on: brain dendritic spines
protocol-notes: Brain dendritic spines in laboratory animals injected intraperitoneally with test compound
Type: in vivo
setup-conditions: intraperitoneal injection after 6 weeks of diet
measured-attribute: level of brain dendritic spines in laboratory animals

* O=c1ccn([C@@H]2O[C@H](COP(=O)(O)OP(=O)(O)OP(=O)(O)OP(=O)(O)OC[C@H]3O[C@@H](n4ccc(=O)[nH]c4=O)[C@H](O)[C@@H]3O)[C@@H](O)[C@H]2O)c(=O)[nH]1 | effective
* CSc1nc(N)c2ncn([C@@H]3O[C@H](COP(=O)(O)OP(=O)(O)OP(=O)(O)O)[C@@H](O)[C@H]3O)c2n1 | effective
* Nc1nc2c(ncn2[C@@H]2O[C@H](COP(=O)(O)OP(=O)(O)OP(=O)(O)O)[C@@H](O)[C@H]2O)c(=O)[nH]1 | effective
